assayDetails: Inhibition of HTLV-1 protease using (RE(Edans)TKVLVVQPK(Dabsyl)R) as substrate by fluorescence assay
Design: species or system Human T-cell leukemia virus type I
Friendly reminder: Ki below 8 µM is 1.0, at or above is 0.0.

1) O=S(=O)(c1ccccc1Cl)N(Cc1ccccc1)[C@H]1CNC[C@@H]1N(Cc1ccccc1)S(=O)(=O)c1ccccc1Cl	1.0
2) O=S(=O)(c1ccccc1)N(Cc1ccccc1)[C@H]1CNC[C@@H]1N(Cc1ccccc1)S(=O)(=O)c1ccccc1	1.0
3) C=CCN([C@H]1CNC[C@@H]1N(CC=C)S(=O)(=O)c1ccccc1)S(=O)(=O)c1ccccc1	0.0
4) C=C(C)CN([C@H]1CNC[C@@H]1N(CC(=C)C)S(=O)(=O)c1ccccc1)S(=O)(=O)c1ccccc1	0.0
5) O=S(=O)(c1ccccc1)N(Cc1ccc(C(F)(F)F)cc1)[C@H]1CNC[C@@H]1N(Cc1ccc(C(F)(F)F)cc1)S(=O)(=O)c1ccccc1	0.0
6) O=S(=O)(c1ccccc1)N(Cc1ccc(I)cc1)[C@H]1CNC[C@@H]1N(Cc1ccc(I)cc1)S(=O)(=O)c1ccccc1	0.0
7) Cc1ccccc1S(=O)(=O)N(Cc1ccccc1)[C@H]1CNC[C@@H]1N(Cc1ccccc1)S(=O)(=O)c1ccccc1C	1.0
8) Nc1ccc(S(=O)(=O)N(Cc2ccccc2)[C@H]2CNC[C@@H]2N(Cc2ccccc2)S(=O)(=O)c2ccc(N)cc2)cc1	1.0
9) CC(C)=CCN([C@H]1CNC[C@@H]1N(CC=C(C)C)S(=O)(=O)c1ccccc1)S(=O)(=O)c1ccccc1	0.0
